Assayed system: c-Cbl (Homo sapiens (Human))
Procedure summary: C-Cbl LCK Ub TR-FRET assay (c-cbl Lck HTRF)
Type: biochemical
Conditions used: C-cbl Lck HTRF IC50 relative to Cbl-b Lck HTRF IC50
Experimental: 6 μL of detection mixture was added to all wells and briefly centrifuged before incubating for 20 min at room temperature. […] IC50 was generated using no LCK as the low control and DMSO as the high control.
Readout type: (fold-selectivity) (x)

[[record]]
molecule = "Cn1cnnc1[C@H](F)C1(c2cccc(N3Cc4c(cc(CN5CC(C(F)F)C5)cc4C(F)(F)F)C3=O)c2)COC1 [Compound 137]"
result_unit = "x"
measured_number = 1.9

[[record]]
molecule = "CC(C)[C@H]1CN(C)CCN1Cc1cc2c(c(C(F)(F)F)c1)CN(c1cccc(C3([C@H](F)c4nncn4C)COC3)c1)C2=O [Compound 188]"
result_unit = "x"
measured_number = 2.0

[[record]]
molecule = "CCCC1(O)CN(Cc2cc3c(c(C(F)(F)F)c2)CN(c2cccc(C4([C@@H](F)c5nncn5C)COC4)c2)C3=O)C1 [Compound 171]"
result_unit = "x"
measured_number = 1.7

[[record]]
molecule = "Cn1cnnc1[C@@H](F)C1(c2cccc(N3Cc4c(cc(CN5CC(O)(C6CC6)C5)cc4C(F)(F)F)C3=O)c2)COC1 [Compound 174]"
result_unit = "x"
measured_number = 2.3


* * *

Assayed system: c-Cbl (Homo sapiens (Human), UniProt P22681)
Sequence (P22681 47-435): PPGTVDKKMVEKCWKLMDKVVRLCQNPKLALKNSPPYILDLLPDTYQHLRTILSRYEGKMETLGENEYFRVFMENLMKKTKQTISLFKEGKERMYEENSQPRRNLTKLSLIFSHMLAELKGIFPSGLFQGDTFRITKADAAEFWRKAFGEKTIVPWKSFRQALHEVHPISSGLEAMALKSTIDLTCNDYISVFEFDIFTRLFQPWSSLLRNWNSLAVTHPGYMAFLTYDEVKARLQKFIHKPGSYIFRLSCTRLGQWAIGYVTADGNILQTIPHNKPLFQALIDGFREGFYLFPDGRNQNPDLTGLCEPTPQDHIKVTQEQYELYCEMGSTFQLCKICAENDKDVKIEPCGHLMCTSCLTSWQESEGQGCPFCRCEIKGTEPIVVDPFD
Procedure summary: C-Cbl LCK Ub TR-FRET assay (c-cbl Lck HTRF)
Assay type: biochemical
Conditions used: C-cbl Lck HTRF IC50 relative to Cbl-b Lck HTRF IC50
Readout type: (fold-selectivity) (x)

A. Cn1cnnc1[C@H](F)C1(c2cccc(N3Cc4c(cc(CN5CC(C)(CF)C5)cc4C(F)(F)F)C3=O)c2)COC1 [Compound 76]
B. CO[C@H]1CCN(Cc2cc3c(c(C(F)(F)F)c2)CN(c2cccc(C4([C@@H](F)c5nncn5C)COC4)c2)C3=O)C1 [Compound 131]
Which numeric (fold-selectivity) is bigger, that of A or that of B ? Please respond with the label that marks your chosen entry.
B

* * *

Assayed system: UniProt:P22681
Procedure summary: C-Cbl LCK Ub TR-FRET assay (c-cbl Lck HTRF)
Assay type: biochemical
Structures can show the parent of a compound that is named as a salt.
Readout type: IC50 (µM)

These recorded examples may help you get a feel for the data.
[[record]]
molecule = "CC(C)[C@H]1CN(C)CCN1Cc1cc2c(c(C(F)(F)F)c1)CN(c1cc(C3(Cc4nncn4C)COC3)cc(NC3CCCC3)n1)C2=O [Compound 297, formate]"
readout_type = "IC50"
measured_number = 0.008

[[record]]
molecule = "Cn1cnnc1C[C@]1(c2cccc(N3Cc4c(cc(CNC5(C)CCC5)cc4C(F)(F)F)C3=O)c2)C[C@H](C#N)C1"
readout_type = "IC50"
measured_number = 0.011

[[record]]
molecule = "CC(=O)N1CCC(CNc2cc(C3(Cc4nncn4C)CCC3)cc(N3Cc4c(cc(CNC5(C)CCC5)cc4C(F)(F)F)C3=O)n2)CC1.Cl [Compound 329, hydrochloride]"
readout_type = "IC50"
measured_number = 0.065

[[record]]
molecule = "Cn1cnnc1CC1(c2cccc(N3Cc4c(cc(C5CCCN5)cc4C(F)(F)F)C3=O)c2)COC1.O=CO (racemic) [Compound 11, formate]"
readout_type = "IC50"
measured_number = 0.62

[[record]]
molecule = "CC(C)[C@H]1CN(C)CCN1Cc1cc2c(c(C(F)(F)F)c1)CN(c1cc(C3(Cc4nncn4C)CCC3)cc(NC(=O)CCl)n1)C2=O"
readout_type = "IC50"
measured_number = 0.053

[[record]]
molecule = "Cn1cnnc1[C@H](F)C1(c2cccc(N3Cc4c(cc(CNCCCF)cc4C(F)(F)F)C3=O)c2)CC(F)(F)C1"
readout_type = "IC50"
measured_number = 0.02

[[record]]
molecule = "CN(C)Cc1cccc(CNc2cc(C3(Cc4nncn4C)CCC3)cc(N3Cc4c(cc(CNC5(C)CCC5)cc4C(F)(F)F)C3=O)n2)c1"
readout_type = "IC50"
measured_number = 0.14

[[record]]
molecule = "CC(C)[C@H]1CN(C)CCN1Cc1cc2c(c(C(F)(F)F)c1)CN(c1cccc(C3(Cc4nncn4C)CCC3)c1)C2=O"
readout_type = "IC50"
measured_number = 0.077

[[record]]
molecule = "Cn1cnnc1[C@@H](F)C1(c2cccc(N3Cc4c(cc(CN5CCC5)cc4C(F)(F)F)C3=O)c2)CC(F)(F)C1"
readout_type = "IC50"
measured_number = 0.18

[[record]]
molecule = "CC[C@H](C)NCc1cc2c(c(C(F)(F)F)c1)CN(c1cccc(C3(Cc4nncn4C)CC(F)(F)C3)c1)C2=O"
readout_type = "IC50"
measured_number = 0.014


P. CC(C)[C@H]1CN(S(C)(=O)=O)CCN1Cc1cc2c(c(C(F)(F)F)c1)CN(c1cccc(C3([C@@H](F)c4nncn4C)COC3)c1)C2=O
Q. Cc1cnnn1CC1(c2cccc(N3Cc4c(cc(CN5CCN(C)C[C@@H]5C(C)C)cc4C(F)(F)F)C3=O)c2)COC1 [Compound 222]
Which numeric IC50 is bigger, that of P or that of Q ? Please respond with the label that marks your chosen entry.
P
(P: 0.11 µM, Q: 0.026 µM)

* * *

Assayed system: UniProt:Q13191
Procedure summary: Cbl-b LCK Ub TR-FRET assay (Cbl-b Lck HTRF)
Type: biochemical
pIC50: −log10 of the molar value.
Readout type: pIC50

[[record]]
compound = "Cn1cnnc1[C@H](F)C1(c2cccc(N3Cc4c(cc(CN5CCC56COC6)cc4C(F)(F)F)C3=O)c2)COC1 [Compound 175]"
readout_type = "pIC50"
measured_number = 6.82


I. Cn1cnnc1[C@H](F)C1(c2cccc(N3Cc4c(cc(CN5CCC6(CC6)C5)cc4C(F)(F)F)C3=O)c2)CC1 [Compound 27]
II. Cn1cnnc1CC1(c2cc(NC3CCCC3)nc(N3Cc4c(cc(CNC5(C)CCC5)cc4C(F)(F)F)C3=O)c2)COC1 [Compound 298]
Which numeric pIC50 is bigger, that of I or that of II ? Please respond with the label that marks your chosen entry.
II

* * *

Assayed system: Cbl-b (Homo sapiens (Human), UniProt Q13191)
Sequence (Q13191 40-426): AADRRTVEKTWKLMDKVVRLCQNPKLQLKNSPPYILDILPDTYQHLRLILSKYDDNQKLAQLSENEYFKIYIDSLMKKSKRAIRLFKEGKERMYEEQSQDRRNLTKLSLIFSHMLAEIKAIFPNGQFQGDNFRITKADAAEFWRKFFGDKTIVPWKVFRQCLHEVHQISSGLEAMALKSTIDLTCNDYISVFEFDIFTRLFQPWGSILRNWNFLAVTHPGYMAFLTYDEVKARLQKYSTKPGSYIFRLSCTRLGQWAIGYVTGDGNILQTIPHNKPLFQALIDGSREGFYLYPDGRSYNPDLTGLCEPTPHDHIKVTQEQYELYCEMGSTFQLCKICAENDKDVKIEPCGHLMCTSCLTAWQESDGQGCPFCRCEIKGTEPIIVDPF
Procedure summary: Cbl-b LCK Ub TR-FRET assay (Cbl-b Lck HTRF)
Type: biochemical
Readout type: IC50 (nM)

These recorded examples may help you get a feel for the data.
[[record]]
compound = "Cn1cnnc1[C@H](F)C1(c2cccc(N3Cc4c(cc(CN5CC6(CCC6)C5)cc4C(F)(F)F)C3=O)c2)COC1 [Compound 165]"
readout_type = "IC50"
result_unit = "nM"
measured_number = 35

[[record]]
compound = "Cn1cnnc1[C@H](F)C1(c2cccc(N3Cc4c(cc(CNCCCF)cc4C(F)(F)F)C3=O)c2)CC(F)(F)C1 [Compound 447]"
readout_type = "IC50"
result_unit = "nM"
measured_number = 16

[[record]]
compound = "Cn1cnnc1[C@@H](F)C1(c2cccc(N3Cc4c(cc(CN5CC6(CC6)C5)cc4C(F)(F)F)C3=O)c2)COC1 [Compound 79]"
readout_type = "IC50"
result_unit = "nM"
measured_number = 170

[[record]]
compound = "Cn1cnnc1[C@@H](F)C1(c2cccc(N3Cc4c(cc(CN5CC(C)(O)C5)cc4C(F)(F)F)C3=O)c2)CC1 (single isomer, unassigned) [Compound 29]"
readout_type = "IC50"
result_unit = "nM"
measured_number = 120

[[record]]
compound = "Cn1cnnc1CC1(c2cccc(N3Cc4c(cc(CN5CCNC[C@H]5C5CC5)cc4C(F)(F)F)C3=O)c2)CC(F)(F)C1 [Compound 436]"
readout_type = "IC50"
result_unit = "nM"
measured_number = 34


A. Cn1cnnc1[C@H](F)C1(c2cccc(N3Cc4c(cc(CN5CCC[C@@H]5CO)cc4C(F)(F)F)C3=O)c2)COC1 [Compound 147]
B. Cn1cnnc1CC1(c2cccc(N3Cc4c(cc(CNC5(C)COC5)cc4C(F)(F)F)C3=O)c2)CC(F)(F)C1 [Compound 332]
C. CC(C)[C@H]1CN(C)CCN1Cc1cc2c(c(C(F)(F)F)c1)CN(c1cccc([C@]3([C@H](F)c4nncn4C)CCO3)c1)C2=O (single isomer, unassigned) [Compound 262]
Arrange these 3 compounds in increasing order of IC50. List labels; respect the requested ordering.
B, A, C

A. Cn1cnnc1CC1(c2cccc(N3Cc4c(cc(CN5CC[C@H](CCl)C5)cc4C(F)(F)F)C3=O)c2)COC1 [Compound 102]
B. CC(C)[C@H]1CN(Cc2cc3c(c(C(F)(F)F)c2)CN(c2cccc(C4(Cc5nncn5C)CC(F)(F)C4)c2)C3=O)CCN1C [Compound 439]
C. C[C@@H]1CN(Cc2cc3c(c(C(F)(F)F)c2)CN(c2cccc(C4(Cc5nncn5C)CC(F)(F)C4)c2)C3=O)CCN1C [Compound 220]
D. Cn1cnnc1[C@H](F)C1(c2cccc(N3Cc4c(cc(CN5CCC(C)(O)CC5)cc4C(F)(F)F)C3=O)c2)COC1 [Compound 141]
Arrange these 4 compounds in increasing order of IC50. List labels; respect the requested ordering.
B, A, C, D
(B: 12 nM, A: 18 nM, C: 34 nM, D: 91 nM)
